System: ducksalad (Heteranthera limosa)
Test: Test B flooded paddy test, plant response rating
Format: in vivo
Details: 250 g ai/ha; Flood; scale of 0 to 100 where 0 is no effect and 100 is complete control; 13 to 15 days
Description: At time of treatment, test pots were flooded to 3 cm above the soil surface, treated by application of test compounds directly to the paddy water, and then maintained at that water depth for the duration of the test. Treated plants and controls were maintained in a greenhouse for 13 to 15 days, after which time all species were compared to controls and visually evaluated. […] A dash (-) response means no test result.
Reported Endpoint: Plant response rating, Ducksalad
Give bare numbers.

O=C(OCCCC(F)(F)F)c1c(Oc2ncc(Cl)cn2)cccc1C(F)(F)F [Compound 65] | 70
O=C(CCC(F)(F)C(F)(F)F)c1c(Br)cccc1Oc1ncc(Cl)cn1 [Compound 110] | 75

Hello, I would appreciate it if you could give Plant response rating, Ducksalad for each entry below.
1. CC(C)ON=Cc1ccccc1Oc1ncc(Cl)cn1 [Compound 57]
2. N#Cc1cccc(Oc2ncc(Cl)cn2)c1C(=O)CCC(F)(F)C(F)(F)F [Compound 111]
3. FC(F)(F)CCCCCc1c(Br)cccc1Oc1ncc(Cl)cn1 [Compound 121]
4. FC(F)(F)C(F)(F)COCc1c(Br)cccc1Oc1ncc(Cl)cn1 [Compound 63]
5. FC(F)(F)CCCCc1c(Cl)cccc1Oc1ncc(Cl)cn1 [Compound 137]
6. N#Cc1cccc(Oc2ncc(Cl)cn2)c1COCC(F)(F)F [Compound 131]

Output:
0
0
0
100
95
80

# batch: return Plant response rating, Ducksalad for each of the 5 compounds below
1. CCCC(=O)c1c(C#N)cccc1Oc1ncc(Cl)cn1 [Compound 67]
2. CCON=C(C)c1c(Br)cccc1Oc1ncc(Cl)cn1 [Compound 95]
3. N#Cc1ccc(Oc2ncc(Cl)cn2)c(C(=O)OCCC(F)(F)F)c1 [Compound 64]
4. O=C(SCCC(F)(F)F)c1c(Br)cccc1Oc1ncc(Cl)cn1 [Compound 71]
5. O=C(OCC(F)(F)C(F)(F)F)c1c(F)cccc1Oc1ncc(Cl)cn1 [Compound 5]

Output:
1: 0; 2: 30; 3: 0; 4: 90; 5: 0

# batch size: 2; output Plant response rating, Ducksalad per entry
1. CCCCOC(=O)c1c(Br)cccc1Oc1ncc(Cl)cn1 [Compound 100]
2. O=C(OCC(F)(F)C(F)(F)F)c1c(F)cccc1Oc1ncc(Br)cn1 [Compound 4]

Output:
1. 90
2. 0

====

Test system: kochia (Kochia scoparia)
Test: Test A postemergence, visual injury rating
Format: in vivo
Details: 31 g ai/ha, 0 to 100 scale, 0 is no effect, 100 is complete control, approximately 10 days
Record form. Attribute: Kochia plant response rating. Fill in for each entry.
Numbers only.

Batch of 2 molecules: report Kochia plant response rating for each.
1. N#Cc1cccc(Oc2ncc(Cl)cn2)c1C(=O)CCC(F)(F)C(F)(F)F
2. O=C(NCCC(F)(F)F)c1c(Br)cccc1Oc1ncc(Cl)cn1

Output:
1. 0
2. 0

Could I get Kochia plant response rating for every one of these entries?
1. C#CCOC(=O)c1c(Br)cccc1Oc1ncc(Cl)cn1
2. O=C(CCC(F)(F)C(F)(F)F)c1c(Br)cccc1Oc1ncc(Cl)cn1

Output:
1. 20
2. 100

Lab note: each molecule below needs its Kochia plant response rating filled in.
1. CCOc1cccc(Oc2ncc(Cl)cn2)c1C(=O)OCCC(F)(F)F
2. COc1cccc(Oc2ncc(Cl)cn2)c1C(=O)OCCC(F)(F)F
3. C=CC(C)COC(=O)c1c(Br)cccc1Oc1ncc(Cl)cn1 (stereo not drawn)

Output:
1: 0; 2: 0; 3: 0

Provide the reported Kochia plant response rating of each entry below, same order.
1. C=C(C)COC(=O)c1c(Br)cccc1Oc1ncc(Cl)cn1
2. O=C(OC/C=C/C(F)(F)F)c1c(Br)cccc1Oc1ncc(Cl)cn1
3. O=C(CCCC(F)(F)F)c1c(Br)cccc1Oc1ncc(Cl)cn1

Output:
1. 0
2. 60
3. 100

Give Kochia plant response rating for all molecules that follow.
1. O=C(OCCC(F)(F)F)c1c(Oc2ncc(Cl)cn2)cccc1C(F)(F)F
2. O=C(OCCC(F)(F)F)c1c(OCC(F)(F)F)cccc1Oc1ncc(Cl)cn1

Output:
[80, 20]
